Target: T1, recombinant human VEGF165 (human, UniProt P15692-4 27-191)
T1 construct: also called hVEGF165; rhVEGF165
T1 sequence (P15692 other isoform, or with tags, fused parts or gaps limits assumed): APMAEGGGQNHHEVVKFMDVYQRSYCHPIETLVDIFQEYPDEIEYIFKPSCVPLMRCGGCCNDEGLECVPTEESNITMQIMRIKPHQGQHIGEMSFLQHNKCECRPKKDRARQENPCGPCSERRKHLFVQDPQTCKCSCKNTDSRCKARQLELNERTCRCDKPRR
Test: Biacore, periplasmic extract on hVEGF165 chip
Hi, to clarify the labels: T covers Binding level (RU) from 500 RU upward, F covers anything below 500 RU.

INSERT INTO measurements (binder, answer_label) VALUES
  ('VEGFBII40H10 (VHH, periplasmic extract) VHH: EVQLMESGGGLVQPGDSLKLSCAFSGRTFSSYSMGWFRQAQGKEREFVVAISSSGGYIYDSVSLEGRFTISRDNTKNTVYLQTPSLKPEDTADYYCAASRAYGSSRLRLADTYDYWGQGTQVTVSS', 'F'),
  ('VEGFBII23A06 (VHH, also called 23A6; VEGFBII23A6) VHH: EVQLVESGGGLVQPGDSLKLSCAFSGRTFSSYSMGWFRQAQGKEREFVVAISSGGFIYDAVSLEGRFTISRDNTKNTVYLQTPSLKPEDTAVYYCAASRAYGSSRLRLADTYDYWGQGTQVTVSS', 'T'),
  ('VEGFBII27G07 (VHH, periplasmic extract) VHH: EVQLVESGGGLVQPGDSLKLSCVASGRTSSSYSMGWFRQAQGQEREFVVAISSGGYIYDSVSLQGRFTISRDNTKNTVYLQTPSLKPEDTAVYYCAASRAYGSSRLRLADTYDYWGQGTQVTVSS', 'F'),
  ('VEGFBII23F11 (VHH, periplasmic extract) VHH: EVQLVESGGGLVQPGDSLKLSCAFSGRTFSSYSMGWFRQAQGKEREFVVAISSGGGYIYDSVSLEGRFTISRDNTKNTVYLQTPSLKPEDTADYYCAASRAYGSSRLRLADTYDYWGQGTQVTVSS', 'F'),
  ('VEGFBII22E04 (VHH, periplasmic extract) VHH: EVQLVESGGGLVQPGDSLKLSCVASGRTSSSYSMGWFRQAQGKEREFVVAISSGGSIYDSVSLQGRFTISRDNTKNTVYLQTPSLKPEDTAVYYCAASRAYASSRLRLADTYDYWGQGTQVTVSS', 'T'),
  ('VEGFBII22A11 (VHH, periplasmic extract) VHH: EVQLVESGGGLVQPGDSLKLSCAFSGRTFSSYSMAWFRQAQGKEREFVVAISSGGFIYDAVSLEGRFTISRDNTKNTVYLQTPSLKPEDTAVYYCAASRAYGSSRLRLADTYDYWGQGTQVTVSS', 'F'),
  ('VEGFBII22A10 (VHH, periplasmic extract) VHH: EVQLVESGGGLVQPGDSLKLSCAFSGRTFSSYSMGWFRQAQGKEREFVVAISSSGGYIYDSVSLEGRFTISRDNTKNTVYLQTPSLKPEDTADYYCAASRAYGSSRLRLADTYDYWGQGTQVTVSS', 'F');
